targetDesc: A138 iCAPS (purified human CB1 with ICL3 native sequence replaced with protein 1 sequence, in lipid bilayer) (human) (UniProt P21554)
Sequence (P21554 whole entry): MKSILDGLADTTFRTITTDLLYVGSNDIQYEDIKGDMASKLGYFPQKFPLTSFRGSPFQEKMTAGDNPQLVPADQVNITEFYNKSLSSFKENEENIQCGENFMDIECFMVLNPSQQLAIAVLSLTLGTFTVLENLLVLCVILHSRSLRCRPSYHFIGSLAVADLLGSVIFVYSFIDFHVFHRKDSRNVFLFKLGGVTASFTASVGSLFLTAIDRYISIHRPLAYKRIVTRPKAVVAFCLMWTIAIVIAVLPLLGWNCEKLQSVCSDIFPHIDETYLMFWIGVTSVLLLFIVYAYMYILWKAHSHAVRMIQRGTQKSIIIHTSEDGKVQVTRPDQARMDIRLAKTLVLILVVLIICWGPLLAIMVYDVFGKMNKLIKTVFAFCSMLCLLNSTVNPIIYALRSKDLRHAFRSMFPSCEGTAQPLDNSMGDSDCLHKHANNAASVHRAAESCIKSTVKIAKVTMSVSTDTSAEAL
experiment: ELISA, purified IgG on CB1 iCAPS
assayReadout: EC50 (nM)
Field: numeric (nM). Do not append units.

>  <binder>
PA2LR3-P4C6 (chimeric) (antibody, V domains shown) VH: EVQLQQSGAELVRPGSSVKISCKASGYAFSYYWMNWVKQRPGQGLEWIGQIYPGDGDTNYNGKFKGKATLTADKSSSTAYMQLSSLTSEDSAVYFCARSHGNYFPYWGQGTLVTVSA VL: DIVITQSPAIVSASLGERVTMTCTASSSVSSSYLHWYQQKPGSSPKLWIYSTSNLASGVPARFSGSGSGTSYSLTISSMEAEDAATYYCQQWSSYPLTFGAGTKLEIKR

>  <measurementUnits>
nM

>  <EC50>
0.4

$$$$

**Q:** # EC50 lookup, item PA2R3-P1F1 (chimeric) (antibody, V domains shown) VH: EVQLQQSGAELMKPGASVKISCKATGYTFSSYWIEWVKQRPGHGLEWIGEILPGSGSTNYNEKFKGKATFTADTSSNTAYMQLSSLTSEDSAVYYCARGAWLLSYWYFDVWGAGTSVTVSS VL: DIQMMQSTSSLSASLGDRVTISCSASQGISNYLNWYQQKPDGTVKLLIYYTSSLHSGVPSRFSGSGSGTQFSLKINSLQPEDFGSYYCQHHYGTPYTFGGGTKLELKR
**A:** 1.3
